Here the recorded melting point is given for each entry.

| compound | melting point |
| --- | --- |
| COc1ccc(N2CCCn3c2nc2c(Cl)ccc(C(OC(F)F)C(F)(F)F)c23)c(C)c1 (centres undefined) | 178 to 182 °C |
| CN1CCC(C2c3cccc4c3N(CC4)c3ccccc3N2C(=O)OCC(Cl)(Cl)Cl)CC1 (centres undefined) | 160 to 162 °C |
| COCCNc1c(N)cc(C(=O)O)cc1S(N)(=O)=O | 209 to 211 °C |
| N#Cc1c(Cl)nc2ccc(S(=O)(=O)Cl)cc2c1Cl | 168 to 171 °C |
| COC(=O)c1ccc(Cn2c(=O)c(C)c3sc(C(=O)NCc4ccc(F)cc4)cn3c2=O)cc1OC | 191 to 193 °C |
| Cc1c(O)ccc(S)c1C | 98 to 99 °C |
| CCCCCCCCCCCc1ncc(C(=O)O)s1 | 93 °C |
| O=C(c1ccccc1)c1ccc2nc(Br)c(C(F)(F)F)nc2c1 | 124 to 126 °C |
| CCCCn1c(CCOC)nc2c(N)nc3ccccc3c21 | 149 to 151 °C |

Provenance of the data: a melting point compilation (Tetko et al.; mined from patent text by program, amines drawn as free bases though some values may be those of a salt)
